Molecular target: T1, HPV38 E7 protein (beta-papillomavirus), recombinant (His-TEV-E7 fusion from E. coli) (Human Papilloma Virus type 38 (HPV38), UniProt Q80908 1-100)
T1 construct: mature; also called HPVE7 38; VE7_HPV38; not shown: N-terminal 6x Histidine tag and TEV cleavage site of the vector
T1 sequence: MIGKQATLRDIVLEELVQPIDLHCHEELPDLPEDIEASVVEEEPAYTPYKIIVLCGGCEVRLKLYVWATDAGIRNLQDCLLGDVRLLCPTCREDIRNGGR
Assay: ELISA and dot-blot

binder: ACAB452 (antibody, IgG1, V domains shown, also called HPV45E7 IgG1 antibody ACAB452) VH: DVQLQESGPGLVKPSQSLSLTCTVTGYSITSDYAWNWIRQFPGNKLEWVGYITYSGSTNYNPSLKSRISITRDTSKNQFFLQFNSVTSEDTATYFCARSWFAYWGQGTLVTVSS VL: DIVMTQTPLSLPVSLGDQASISCRSSQSLVHSNGNTYLHWFLQKPGQSPKLLIYKVSNRFSGVPDRFSGSGSGTDFTLKISRVEAEDLGVYFCLQSAHVPLTFGAGTKLELTR
binding result: no binding
--
binder: ACAB337 (antibody, IgG1, V domains shown, also called HPV33E7 IgG1 antibody ACAB337) VH: DVQLQESGPGLVKPSQSLSLTCTVTGHSITSDYAWNWIRQFPGNKLEWVAYISYSGGTGYNPSLKSRISITRDTSKPNQFFLQLNSVTTEDTATYYCACGDYYYGPRDYWGQGTSVTVSS VL: DILLTQSPAILSVSPGERVSFSCRASQSIGTSIHWYQQRTNGSPRLLIKYASESISGIPSRFSGSGSGTDFTLSINSVESEDIADYYCQQSNYWPFTFGSGTKLEIKR
binding result: no binding
--
binder: ACAB161 (antibody, IgG2a, V domains shown, the printed entries run on into the first residues of the constant domains; also called HPV16E7 IgG2a antibody ACAB161) VH: EVMLVESGGGLVKPGGSLKLSCAASGFTFSRYTMSWVRQTPEKRLEWVATISSGGTNTNYTDSVKGRFTISRDNAKNNLYLQMSSLRSEDTALYYCTRGVRRGDGYAMDYWGQGTSVTVSS VL: DIVLTQAAPSVPVTPGESVSISCRSTKSLLHSNGNTYLYWFLQRPGQSPQALIYRTSNLASGVPDRFSGSGSGTAFTLRISRVEAEDVGVYYCMQHLEYPLTFGAGTKLELKR
binding result: no binding
